Value source: ChEMBL document CHEMBL1153180

subjectOfTest: Cathepsin D (Homo sapiens)
Sequence (P07339 65-162 limits assumed): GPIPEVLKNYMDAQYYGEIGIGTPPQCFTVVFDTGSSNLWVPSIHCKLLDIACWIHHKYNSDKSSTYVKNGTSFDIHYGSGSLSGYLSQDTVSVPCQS
Sequence (P07339 169-412 limits assumed): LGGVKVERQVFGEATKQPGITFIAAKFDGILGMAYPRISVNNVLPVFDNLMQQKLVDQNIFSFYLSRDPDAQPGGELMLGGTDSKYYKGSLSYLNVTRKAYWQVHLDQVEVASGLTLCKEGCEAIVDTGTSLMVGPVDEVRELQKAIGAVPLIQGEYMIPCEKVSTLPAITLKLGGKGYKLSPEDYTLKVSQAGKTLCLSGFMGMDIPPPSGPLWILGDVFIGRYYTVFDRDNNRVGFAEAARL
methodNotes: Inhibition of human cathepsin D at 100 uM by FRET assay
valueKind: inhibition (%)

CN1C(=O)C(c2ccccc2)(c2ccccc2)N=C1N
34
CN1C(=O)C(C2CCCCC2)(C2CCCCC2)N=C1N
33

I: CN1C(=O)C(c2ccccc2)(C2CCCCC2)N=C1N (centres undefined)
II: NC1=NC(c2ccccc2)(c2ccccc2)C2=NCCCN12
Please choose the item with the lower inhibition value from this pair: I and II Give the label under which the chosen entry appears.
II
(II: 2%, I: 38%)

----------
The listing below reports IC50 for molecules tested on Beta-secretase 1 (Homo sapiens).
Sequence (P56817 whole entry): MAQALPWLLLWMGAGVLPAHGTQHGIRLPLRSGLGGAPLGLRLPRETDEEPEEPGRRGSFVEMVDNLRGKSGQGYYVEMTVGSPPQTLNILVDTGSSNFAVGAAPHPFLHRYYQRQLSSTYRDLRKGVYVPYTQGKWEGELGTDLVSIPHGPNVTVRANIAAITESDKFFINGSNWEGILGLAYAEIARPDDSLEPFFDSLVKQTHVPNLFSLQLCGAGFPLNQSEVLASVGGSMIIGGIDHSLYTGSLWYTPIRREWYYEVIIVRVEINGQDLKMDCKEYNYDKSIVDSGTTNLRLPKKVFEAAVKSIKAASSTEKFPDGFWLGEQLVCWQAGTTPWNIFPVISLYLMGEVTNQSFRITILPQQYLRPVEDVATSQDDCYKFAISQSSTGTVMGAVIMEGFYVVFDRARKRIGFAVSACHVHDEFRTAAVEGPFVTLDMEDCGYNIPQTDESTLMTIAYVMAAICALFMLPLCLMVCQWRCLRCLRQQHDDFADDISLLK
valueKind: IC50 (nM)

a: NC1=NC(c2ccccc2)(C2CCCCC2)C(=O)N1CCCCCC(=O)O (stereo not given)
b: CN1C(=O)C(c2cccc(NC(=O)c3ccco3)c2)(C2CCCCC2)N=C1N (stereo not given)
c: COc1cccc(C(=O)Nc2cccc(C3(C4CCCCC4)N=C(N)N(C)C3=O)c2)c1 (stereo not given)
From the records above, write out the order of decreasing IC50. Ranked list of labels, please, in the requested order.
c, a, b
(c: 1360 nM, a: 950 nM, b: 100 nM)
